Where these numbers come from: DBAASP

- Tested on: Pseudomonas aeruginosa H103
- Experiment description: ≥ marks a high value that may be exact or a test limit, other limits are often not marked, values filed in µg/mL are converted to µM
Reported property: MIC (µM)
One number for each entry, in µM.

# CC(C)C[C@H](NC(=O)[C@H](Cc1c[nH]c2ccccc12)NC(=O)[C@H](CCCN=C(N)N)NC(=O)[C@H](Cc1c[nH]c2ccccc12)NC(=O)[C@H](Cc1c[nH]c2ccccc12)NC(=O)[C@H](CCCCN)NC(=O)[C@H](CCCCN)NC(=O)[C@H](Cc1c[nH]c2ccccc12)NC(=O)[C@@H](N)CCCN=C(N)N)C(=O)O with Pseudomonas aeruginosa H103: MIC is 1.38

----------
Observed MIC, system Salmonella enterica subsp. enterica serovar Typhimurium C77-31.

The examples below pair each entry with its known result.
C[C@@H]1NC(=O)[C@@H](N)CSSC[C@@H](C(=O)O)NC(=O)[C@H](Cc2ccccc2)NC(=O)[C@H](Cc2ccc(O)cc2)NC(=O)[C@H](CO)NC1=O [CASYFC] ... ≥ 64 µM
NC(=O)[C@@H]1CCCN1C(=O)[C@H](CCCN=C(N)N)NC(=O)[C@@H]1CCCN1C(=O)[C@H](CCCN=C(N)N)NC(=O)[C@H](CS)NC(=O)[C@H](Cc1ccccc1)NC(=O)[C@H](CCCN=C(N)N)NC(=O)[C@H](CCCN=C(N)N)NC(=O)[C@H](CCCN=C(N)N)NC(=O)[C@H](CS)NC(=O)[C@H](CCCN=C(N)N)NC(=O)[C@@H]1CCCN1C(=O)[C@H](CCCN=C(N)N)NC(=O)[C@@H]1CCCN1 [PRPRCRRRFCRPRP] ... ≥ 128 µM

Kindly consider the entry below.
Case CC[C@H](C)[C@H](NC(=O)[C@H](CCCCN)NC(=O)[C@H](CCCCN)NC(=O)[C@H](CC(C)C)NC(=O)[C@H](CCCN=C(N)N)NC(=O)[C@H](Cc1c[nH]c2ccccc12)NC(=O)[C@H](CCCN=C(N)N)NC(=O)[C@@H](NC(=O)[C@H](CCCCN)NC(=O)[C@H](Cc1c[nH]c2ccccc12)NC(=O)[C@H](CCCN=C(N)N)NC(=O)[C@H](CC(C)C)NC(=O)[C@H](CCCN=C(N)N)NC(=O)[C@H](CCCN=C(N)N)NC(=O)[C@H](Cc1ccccc1)NC(=O)[C@@H](N)CCCN=C(N)N)[C@@H](C)O)C(N)=O [RFRRLRWKTRWRLKKI] , Salmonella enterica subsp. enterica serovar Typhimurium C77-31, MIC recorded as 8 µM

----------
Observed MIC values for Staphylococcus aureus ATCC 25923 are listed in what follows.
Answers are plain numbers, in µM.

Below are worked cases with known answers.
CC(C)C[C@H](NC(=O)[C@H](CCCCN)NC(=O)[C@H](CC(C)C)NC(=O)[C@H](C)NC(=O)[C@H](CC(C)C)NC(=O)[C@H](CCCCN)NC(=O)[C@H](CCCCN)NC(=O)[C@H](CC(C)C)NC(=O)[C@H](CC(C)C)NC(=O)[C@H](CCCCN)NC(=O)[C@H](Cc1c[nH]c2ccccc12)NC(=O)[C@@H](NC(=O)[C@H](CC(C)C)NC(=O)[C@H](CCCCN)NC(=O)[C@@H](N)Cc1ccccc1)C(C)C)C(=O)O ... 32
NC(=O)[C@H](CCCN=C(N)N)NC(=O)[C@H](Cc1c[nH]c2ccccc12)NC(=O)[C@H](CCCN=C(N)N)NC(=O)[C@H](Cc1c[nH]c2ccccc12)NC(=O)[C@H](CCCN=C(N)N)NC(=O)[C@@H](N)Cc1c[nH]c2ccccc12 ... 7.18

# next compound below
Recorded MIC (compound CC[C@H](C)[C@H](NC(=O)[C@H](CCCN=C(N)N)NC(=O)[C@H](CC(C)C)NC(=O)[C@H](CCC(N)=O)NC(=O)[C@@H](N)C(C)C)C(=O)N[C@@H](CCCN=C(N)N)C(=O)N[C@H](C(=O)N[C@@H](CS)C(=O)N[C@H](C(=O)N[C@H](C(=O)N[C@@H](CCCN=C(N)N)C(=O)N[C@@H](CCCN=C(N)N)C(=O)O)[C@@H](C)CC)C(C)C)C(C)C ): 10.6

----------
Heads up, these compounds all have MIC values measured for Bacillus subtilis CMCC 63501.
Answers are plain numbers, in µM.

Required: MIC, one value per compound below.
1. CC[C@H](C)[C@H](N)C(=O)N[C@@H](CCCN=C(N)N)C(=O)N[C@H](C(=O)N[C@@H](CCCN=C(N)N)C(=O)N[C@@H](CS)C(=O)N[C@@H](CCCN=C(N)N)C(=O)N[C@@H](CCCN=C(N)N)C(=O)N[C@@H](CCCN=C(N)N)C(=O)N[C@@H](Cc1ccccc1)C(=O)N[C@@H](CS)C(=O)N[C@@H](CCCN=C(N)N)C(=O)N[C@H](C(=O)N[C@@H](CCCN=C(N)N)C(=O)N[C@H](C(N)=O)[C@@H](C)CC)[C@@H](C)CC)[C@@H](C)CC
2. C[C@H](NC(=O)[C@H](CCCN=C(N)N)NC(=O)[C@H](Cc1c[nH]c2ccccc12)NC(=O)[C@H](CCCN=C(N)N)NC(=O)[C@H](Cc1c[nH]c2ccccc12)NC(=O)[C@H](Cc1c[nH]c2ccccc12)NC(=O)[C@H](Cc1c[nH]c2ccccc12)NC(=O)[C@H](CCCN=C(N)N)NC(=O)[C@H](Cc1c[nH]c2ccccc12)NC(=O)[C@H](CCCN=C(N)N)NC(=O)[C@@H](N)CO)C(N)=O

### Response
1: 2; 2: 8

----------
- Test system: Staphylococcus aureus ATCC 25923
Please go through the items and note down their MIC.
One number for each entry, in µM.

Consider the reported MIC for these compounds:
CC[C@H](C)[C@H](NC(=O)[C@H](CCCCN)NC(=O)[C@H](CCCCN)NC(=O)[C@@H](NC(=O)[C@@H](NC(=O)[C@H](CCCCN)NC(=O)[C@H](CCCCN)NC(=O)[C@@H](NC(=O)[C@@H](NC(=O)[C@H](CCCCN)NC(=O)[C@H](CCCCN)NC(=O)[C@@H](NC(=O)[C@@H](NC(=O)[C@H](CCCCN)NC(=O)[C@H](CCCCN)NC(=O)[C@@H](NC(=O)[C@@H](NC(=O)CN)[C@@H](C)CC)[C@@H](C)CC)[C@@H](C)CC)[C@@H](C)CC)[C@@H](C)CC)[C@@H](C)CC)[C@@H](C)CC)[C@@H](C)CC)C(N)=O ... 4
CC(C)[C@H](NC(=O)[C@H](C)NC(=O)[C@H](CCCN=C(N)N)NC(=O)[C@H](CC(=O)O)NC(=O)[C@@H](NC(=O)[C@H](C)N)C(C)C)C(=O)O ... 100

The recorded MIC for entry CC(C)C[C@H](NC(=O)[C@H](CC(C)C)NC(=O)[C@H](CCC(N)=O)NC(=O)[C@H](CCCCN)NC(=O)[C@H](CC(C)C)NC(=O)[C@H](CCCCN)NC(=O)[C@H](CCCCN)NC(=O)[C@@H](N)CC(C)C)C(=O)NCC(=O)N[C@@H](CCCCN)C(=O)N[C@@H](CC(C)C)C(=O)N[C@@H](CO)C(=O)N[C@@H](CCC(=O)O)C(=O)N[C@@H](Cc1ccccc1)C(=O)N[C@@H](C)C(=O)N[C@@H](C)C(=O)N[C@@H](C)C(=O)N[C@@H](Cc1ccccc1)C(=O)N[C@H](C(=O)N[C@@H](C)C(N)=O)C(C)C equals 32

----------
# MIC measurements, system: Bacillus subtilis
Give bare numbers, in µM.

CC[C@H](C)[C@H](NC(=O)[C@H](CO)NC(=O)[C@H](CCCCN)NC(=O)[C@H](Cc1ccccc1)NC(=O)[C@H](CCCCN)NC(=O)[C@H](CCCCN)NC(=O)[C@H](CC(C)C)NC(=O)[C@@H]1CCCN1C(=O)[C@@H](NC(=O)[C@H](CCCCN)NC(=O)[C@@H](NC(=O)[C@@H](NC(=O)[C@H](C)N)C(C)C)C(C)C)C(C)C)C(=O)N[C@@H](CCCN=C(N)N)C(=O)N[C@@H](CCC(=O)O)C(=O)O ... 11.5

Would you mind giving MIC for every compound in the list below?
1. CC(C)C[C@H](NC(=O)[C@H](CC(C)C)NC(=O)[C@H](CCCN=C(N)N)NC(=O)[C@H](Cc1cnc[nH]1)NC(=O)[C@@H](NC(=O)[C@H](CCCN=C(N)N)NC(=O)CNC(=O)[C@@H](NC(=O)[C@@H]1CCCN1C(=O)[C@@H](N)Cc1ccccc1)C(C)C)C(C)C)C(=O)N[C@@H](CCCN=C(N)N)C(=O)N[C@@H](CCCCN)C(=O)O
2. CC(C)C[C@H](NC(=O)[C@@H](NC(=O)[C@H](CCCCN)NC(=O)[C@H](CC(C)C)NC(=O)[C@H](C)NC(=O)[C@@H](NC(=O)[C@H](CCCCN)NC(=O)[C@H](Cc1ccccc1)NC(=O)[C@H](CC(C)C)NC(=O)[C@H](C)NC(=O)[C@H](CCCCN)NC(=O)[C@H](CC(C)C)NC(=O)[C@@H](N)Cc1ccccc1)C(C)C)C(C)C)C(=O)O

### Response
1: 21.7; 2: 16.8
